# methodNotes: Stability test of enantiomers: degradation followed by UHPLC reverse phase purity
# Assay type: physicochemical
# recordedConditions: 0 h, stored at 5° C. protected from light
readoutLabel: UHPLC Pureté en phase inverse

Query: Let me know recorded UHPLC Pureté en phase inverse for C=CCSC[C@@H]1Nc2cc(Cl)c(S(N)(=O)=O)cc2S(=O)(=O)N1 [AZ(A)] , thanks.
Reply: 99.9%

* * *

# Test system: hematopoietic stem cells CD41:GFP accumulated in the CHT
# Format: in vivo
# recordedConditions: 10 μM (FIG. 3; b188 prints 10 μl), 24 h, vs reference embryos treated with DMSO
Where a name gives a salt, the structure may show the parent alone.
readoutLabel: reduction of the number of HSCs accumulated in CHT

1. C[N+]1(CCCCC[N+]2(C)CCCC2)CCCC1.O=C([O-])C(O)C(O)C(=O)O.O=C([O-])C(O)C(O)C(=O)O [Pentolinium-bitartrate, reference compound] : do not cause a decrease
2. Cc1ccccc1N1C(=O)c2cc(S(N)(=O)=O)c(Cl)cc2NC1C (centres unmarked) [Metolazone, reference compound] : do not cause a decrease
3. C=CCSCC1Nc2cc(Cl)c(S(N)(=O)=O)cc2S(=O)(=O)N1 (racemic) [althiazide] : 41%
4. NNc1nncc2ccccc12 [Hydralazine-hydrochloride, reference compound] : do not cause a decrease

Next up:
Query: Let me know recorded reduction of the number of HSCs accumulated in CHT for NS(=O)(=O)c1cc(C2(O)NC(=O)c3ccccc32)ccc1Cl (centres unmarked) [Chlortalidone, reference compound] , thanks.
Reply: do not cause a decrease

* * *

# methodNotes: Stability test of enantiomers: degradation followed by UHPLC reverse phase purity
# Type: physicochemical
# recordedConditions: 24 h, stored at 5° C. protected from light
readoutLabel: UHPLC Pureté en phase inverse (%)
The figure you give is taken to be in %; do not add the unit.

Query: Let me know recorded UHPLC Pureté en phase inverse for `C=CCSC[C@@H]1Nc2cc(Cl)c(S(N)(=O)=O)cc2S(=O)(=O)N1` , thanks.
Reply: 94.9

* * *

# methodNotes: Stability test of enantiomers: degradation followed by UHPLC reverse phase purity
# Assay type: physicochemical
# recordedConditions: 0 h, stored at room temperature without protection against light
readoutLabel: UHPLC Pureté en phase inverse (%)
The figure you give is taken to be in %; do not add the unit.

Query: Let me know recorded UHPLC Pureté en phase inverse for `C=CCSC[C@H]1Nc2cc(Cl)c(S(N)(=O)=O)cc2S(=O)(=O)N1` , thanks.
Reply: 100

* * *

# methodNotes: Stability test of enantiomers: degradation followed by UHPLC reverse phase purity
# Type: physicochemical
# recordedConditions: 24 h, stored at room temperature without protection against light
readoutLabel: UHPLC Pureté en phase inverse (%)
The figure you give is taken to be in %; do not add the unit.

Query: Let me know recorded UHPLC Pureté en phase inverse for C=CCSC[C@H]1Nc2cc(Cl)c(S(N)(=O)=O)cc2S(=O)(=O)N1 [AZ(B)] , thanks.
Reply: 90.5
